All values here come from patent US20030125257A1.

Target: purified full-length human BACE with six C-terminal His residues, expressed in Sf9 insect cells (human, UniProt P56817 46-501)
Sequence (P56817 other isoform, or with tags, fused parts or gaps): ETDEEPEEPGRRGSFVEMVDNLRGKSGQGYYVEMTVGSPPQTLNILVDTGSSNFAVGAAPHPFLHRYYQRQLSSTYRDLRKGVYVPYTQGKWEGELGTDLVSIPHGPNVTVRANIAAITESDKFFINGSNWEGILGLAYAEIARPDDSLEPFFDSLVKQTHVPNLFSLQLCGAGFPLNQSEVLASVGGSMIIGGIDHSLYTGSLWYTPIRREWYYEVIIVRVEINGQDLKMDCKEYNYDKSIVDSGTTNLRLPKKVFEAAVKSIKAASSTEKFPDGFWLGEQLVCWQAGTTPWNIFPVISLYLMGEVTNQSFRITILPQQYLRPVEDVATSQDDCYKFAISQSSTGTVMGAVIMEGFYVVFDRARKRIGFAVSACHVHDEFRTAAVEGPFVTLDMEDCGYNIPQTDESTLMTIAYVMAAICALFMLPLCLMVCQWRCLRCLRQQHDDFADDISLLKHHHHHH
Assay: radioligand equilibrium binding (Scatchard plot); no inhibitor
Square brackets hold non-standard residues; d marks the D form. Ends that are not written are not given here. Sta = CC(C)C[C@H](N)[C@@H](O)CC(=O)O
outcome.measure: pKd
To interpret pKd, take it as minus log10 of a concentration measured in moles per litre.

Item: EVN[Sta]VAE[Tyr(3H2)]-NH2 [tritiated Compound A (Glu-Val-Asn-Statine-Val-Ala-Glu-Tyr-NH2, iodine of Tyr(I2) exchanged for 3H)] | pKd: 7.60
